Molecular target: recombinant guanylate cyclase reporter cell line (Rattus norvegicus, UniProt P19686+P20595)
Construct: expressed in transfected cells
Sequence (P19686 1-690): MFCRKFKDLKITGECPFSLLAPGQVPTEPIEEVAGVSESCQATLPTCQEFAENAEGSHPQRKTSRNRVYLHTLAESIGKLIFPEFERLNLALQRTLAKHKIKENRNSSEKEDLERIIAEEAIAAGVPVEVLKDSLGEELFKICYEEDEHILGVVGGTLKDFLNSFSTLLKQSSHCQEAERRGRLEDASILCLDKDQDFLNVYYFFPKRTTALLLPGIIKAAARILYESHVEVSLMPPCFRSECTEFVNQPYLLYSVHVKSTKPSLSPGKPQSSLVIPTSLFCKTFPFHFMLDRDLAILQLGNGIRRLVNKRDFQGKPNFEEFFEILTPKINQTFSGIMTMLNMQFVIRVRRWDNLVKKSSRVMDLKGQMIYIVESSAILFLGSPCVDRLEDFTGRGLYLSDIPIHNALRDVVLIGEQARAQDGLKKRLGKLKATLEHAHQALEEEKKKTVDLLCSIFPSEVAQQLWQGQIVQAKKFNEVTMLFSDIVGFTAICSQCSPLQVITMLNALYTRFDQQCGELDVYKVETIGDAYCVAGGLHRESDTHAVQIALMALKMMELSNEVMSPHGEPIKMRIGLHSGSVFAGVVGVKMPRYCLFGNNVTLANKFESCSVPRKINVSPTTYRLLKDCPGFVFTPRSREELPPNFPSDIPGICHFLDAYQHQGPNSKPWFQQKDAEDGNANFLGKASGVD
Sequence (P20595 1-619): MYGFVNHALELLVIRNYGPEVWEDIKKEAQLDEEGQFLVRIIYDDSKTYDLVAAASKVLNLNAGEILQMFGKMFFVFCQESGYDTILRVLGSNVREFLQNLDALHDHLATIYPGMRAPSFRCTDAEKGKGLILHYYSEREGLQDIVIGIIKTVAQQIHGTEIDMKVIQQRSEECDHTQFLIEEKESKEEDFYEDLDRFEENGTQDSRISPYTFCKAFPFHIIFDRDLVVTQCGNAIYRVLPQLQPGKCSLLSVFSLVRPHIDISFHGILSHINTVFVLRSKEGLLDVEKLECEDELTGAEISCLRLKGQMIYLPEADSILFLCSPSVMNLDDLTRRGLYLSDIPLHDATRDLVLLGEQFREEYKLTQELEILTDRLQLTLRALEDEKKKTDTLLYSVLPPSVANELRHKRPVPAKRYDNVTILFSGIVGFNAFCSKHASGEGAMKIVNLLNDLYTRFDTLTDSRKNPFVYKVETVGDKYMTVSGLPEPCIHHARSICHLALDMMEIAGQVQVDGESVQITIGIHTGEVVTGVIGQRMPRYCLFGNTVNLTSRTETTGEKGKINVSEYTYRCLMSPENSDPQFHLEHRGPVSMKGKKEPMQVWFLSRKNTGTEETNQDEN
Experiment: Effect on a recombinant guanylate cyclase reporter cell line
Assay type: cell-based
Details: MEC = minimum effective concentration; in some cases means of individual determinations
Can you tell me MEC for the items I'm about to list?
Answers are plain numbers, in µM.

Here is how some molecules turned out for MEC.
[[record]]
molecule = "C=CCONC(=O)c1nc(-c2nn(Cc3ccccc3F)c3ncccc23)nc2c1C(C)(C)C(=O)N2"
value_reported = 0.1

[[record]]
molecule = "CC1(C)C(=O)Nc2nc(-c3nn(Cc4ccccc4F)c4cc(Cl)ccc34)nc(C(=O)N3CCCC3)c21"
value_reported = 0.1

[[record]]
molecule = "Cc1nc2c(cc1F)c(-c1nc3c(c(C(N)=O)n1)C(C)(C)C(=O)N3)nn2Cc1cccc(F)c1F"
value_reported = 0.2


Items follow; give MEC for each.
1. Cc1nc2c(cc1F)c(-c1nc3c(c(C(N)=O)n1)C(C)(C(F)(F)F)C(=O)N3)nn2Cc1c(F)ccc(F)c1F (single isomer, unassigned; ent-2) [Example 17]
2. CCOCCCNC(=O)c1nc(-c2nn(Cc3ccccc3F)c3ncccc23)nc2c1C(C)(C)C(=O)N2
3. CC(C)=CCNC(=O)c1nc(-c2nn(Cc3ccccc3F)c3ncccc23)nc2c1C(C)(C)C(=O)N2
4. CC1(C)C(=O)Nc2nc(-c3nn(Cc4ccccc4F)c4ncccc34)nc(C(=O)NCCO)c21

Solution:
0.03
0.1
0.1
0.3
